- Target under test: UniProt:Q8NEB9
- Method: Human VPS34 enzyme assay (Adapta TR-FRET ADP detection)
- Assay type: biochemical
- Test parameters: IC50 range class
pIC50: −log10 of the molar value.
Value kind: pIC50

Recorded results for 6 molecules are shown here.
> print(dat)
                           structure.string  result
1  CC(=O)Nc1cc(-c2cnc(N)c(C(=O)N3CCc4ccccc43)c2)ccn1  > 8.00
2  Cc1nc(Nc2cc(-c3cnc(C)c(NS(=O)(=O)c4ccc(F)cc4F)c3)ccn2)nc(C2CC2)n1  > 8.00
3  CC(=O)Nc1cc(-c2cc(S(C)(=O)=O)c[n+]([O-])c2)ccn1  < 7.00
4  CCN(CC)S(=O)(=O)c1cncc(-c2ccnc(NC(C)=O)c2)c1  > 8.00
5  CC(=O)Nc1cc(-c2cnc(N)c(C(=O)Nc3cccc(F)c3F)c2)ccn1  > 8.00
6     CC(=O)Nc1cc(-c2cnc3[nH]ncc3c2)c(C)cn1  < 7.00

Problem: Please supply the value of reported pIC50 for the item CC(=O)Nc1cc(-c2cnc(C)c(NS(=O)(=O)c3ccc(Cl)cc3)c2)ccn1
Solution: > 8.00

Problem: Report measured pIC50; entry is CC(=O)Nc1cc(-c2cnc(N)c(C(=O)N3CCCC3)c2)ccn1
Solution: 7.30 to 8.00

Problem: Answer with the recorded pIC50 of CC(=O)Nc1cc(-c2cnc(N)c(S(=O)(=O)N(C(C)C)C(C)C)c2)ccn1 only.
Solution: > 8.00

Problem: Retrieve pIC50 measured for CC(=O)Nc1cc(-c2cncc(S(=O)(=O)N3CCC(F)(F)C3)c2)ccn1 and print it.
Solution: 7.30 to 8.00

Problem: Return the recorded pIC50 value; entry: COc1ncc(-c2ccnc(NC(C)=O)c2)cc1N(C)C(=O)c1ccc(F)cc1F
Solution: < 7.00

Problem: Read off the recorded pIC50 for COc1nccc(Nc2cc(-c3cnc(N)c(C(=O)N(C)C45CC(C4)C5)c3)ccn2)n1
Solution: 7.30 to 8.00

Problem: Return value of pIC50 for input COc1cc(F)ccc1S(=O)(=O)Nc1cc(-c2ccnc(NC(C)=O)c2)cnc1C , no commentary.
Solution: > 8.00

Problem: Indicate its recorded pIC50; the molecule in question is CC(=O)Nc1cc(-c2cnc3c(c2)S(=O)(=O)N(C)CN3)ccn1
Solution: 7.30 to 8.00

###

- Target under test: human VPS34 (Homo sapiens (Human), UniProt Q8NEB9)
- Sequence (Q8NEB9 whole entry): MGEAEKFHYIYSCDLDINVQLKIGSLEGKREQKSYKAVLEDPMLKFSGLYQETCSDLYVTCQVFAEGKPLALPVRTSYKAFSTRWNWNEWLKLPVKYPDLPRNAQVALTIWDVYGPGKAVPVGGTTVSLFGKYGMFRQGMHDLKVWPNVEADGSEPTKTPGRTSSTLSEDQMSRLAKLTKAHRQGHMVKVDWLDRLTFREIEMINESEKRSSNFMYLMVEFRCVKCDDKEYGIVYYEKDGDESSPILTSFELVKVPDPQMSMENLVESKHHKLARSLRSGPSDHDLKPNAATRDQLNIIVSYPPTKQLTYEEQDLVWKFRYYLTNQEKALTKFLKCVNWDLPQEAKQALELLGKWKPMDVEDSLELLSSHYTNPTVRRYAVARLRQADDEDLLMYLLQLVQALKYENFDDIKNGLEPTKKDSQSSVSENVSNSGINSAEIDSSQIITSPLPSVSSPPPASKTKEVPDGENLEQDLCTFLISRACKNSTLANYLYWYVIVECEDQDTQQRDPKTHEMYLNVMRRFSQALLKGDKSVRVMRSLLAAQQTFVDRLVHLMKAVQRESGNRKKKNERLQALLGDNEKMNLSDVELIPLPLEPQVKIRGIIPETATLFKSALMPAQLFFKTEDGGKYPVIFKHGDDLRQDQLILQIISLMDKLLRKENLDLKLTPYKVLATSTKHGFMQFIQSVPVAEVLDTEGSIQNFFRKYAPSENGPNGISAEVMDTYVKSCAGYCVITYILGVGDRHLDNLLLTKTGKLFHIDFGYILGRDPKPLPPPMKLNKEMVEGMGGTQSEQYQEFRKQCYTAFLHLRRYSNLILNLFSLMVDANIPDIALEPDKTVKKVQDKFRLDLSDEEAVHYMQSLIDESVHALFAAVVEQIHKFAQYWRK
- Method: Human VPS34 enzyme assay (Adapta TR-FRET ADP detection)
- Assay type: biochemical
- Test parameters: IC50 range class
Value kind: IC50

> print(dat)
                            structure.string        result
 1  CNc1ncc(-c2ccnc(NC(C)=O)c2)c(C)c1S(=O)(=O)NC(C)(C)C  50 to 100 nM
 2  CC(=O)Nc1cc(-c2cc(NS(=O)(=O)c3ccc(F)cc3F)c3ncnn3c2)ccn1   10 to 50 nM
 3  CC(=O)Nc1cc(-c2cnc(C)c(NC(=O)c3ccc(F)cc3F)c2)ccn1      > 100 nM
 4  CC(=O)Nc1cc(-c2cnc(C)c(N3CCCN(C)S3(=O)=O)c2)ccn1   10 to 50 nM
 5  CC(=O)Nc1cc(-c2cnc(N(C)C)c(C(=O)N(C)C)c2)ccn1   10 to 50 nM
 6  CC(=O)Nc1cc(-c2cncc(NS(=O)(=O)c3ccc(F)cc3F)c2)ccn1       < 10 nM
 7  Cc1nccc(Nc2cc(-c3cnc(C)c(C(N)=O)c3)ccn2)n1      > 100 nM
 8  CC(=O)Nc1cc(-c2cncc(S(=O)(=O)N3CCC3)c2)ccn1   10 to 50 nM
 9  Cc1c(-c2ccnc(N)c2)cnc(Cl)c1NS(=O)(=O)c1ccc(F)cc1F      > 100 nM
10  CC(=O)Nc1cc(-c2cncc(S(=O)(=O)N3CCC(F)(F)CC3)c2)ccn1   10 to 50 nM

Problem: Give IC50 for the following molecule: Cc1nccc(Nc2cc(-c3cnc(Cl)c(NC(=O)c4ccc(F)cc4F)c3C)ccn2)n1
Solution: 50 to 100 nM

Problem: Provide measured IC50 value, entry: CC(=O)Nc1cc(-c2cnc3ccn(CC4CC4)c3c2)ccn1
Solution: 10 to 50 nM

Problem: Respond only with IC50 recorded for CC(=O)Nc1cc(-c2cnc(N)c(S(=O)(=O)N(C)CC3CC3)c2)ccn1
Solution: < 10 nM

Problem: Answer with the recorded IC50 of CC(=O)Nc1cc(-c2cnc(N(C)C)c(C(=O)NC34CC(C3)C4)c2)ccn1 only.
Solution: 10 to 50 nM

Problem: Please look at this molecule and report its IC50: CC(=O)Nc1cc(-c2cnc(C)c(NS(=O)(=O)c3ccccc3C(F)(F)F)c2)ccn1
Solution: < 10 nM

Problem: Dear colleague, please send me the reported IC50 for CC(=O)Nc1cc(-c2cnc(C)c(NS(=O)(=O)c3cccc4ccccc34)c2)ccn1 when you can.
Solution: < 10 nM

Problem: Please give the documented IC50 of Cc1ccc(Nc2cc(-c3cnc(C)c(NS(=O)(=O)c4ccc(F)cc4F)c3)ccn2)nn1
Solution: 10 to 50 nM
